Give measured EC50 for each item. Keep answers brief.
Molecular target: DNA topoisomerase 1 (Homo sapiens, UniProt P11387)
Sequence (P11387 whole entry): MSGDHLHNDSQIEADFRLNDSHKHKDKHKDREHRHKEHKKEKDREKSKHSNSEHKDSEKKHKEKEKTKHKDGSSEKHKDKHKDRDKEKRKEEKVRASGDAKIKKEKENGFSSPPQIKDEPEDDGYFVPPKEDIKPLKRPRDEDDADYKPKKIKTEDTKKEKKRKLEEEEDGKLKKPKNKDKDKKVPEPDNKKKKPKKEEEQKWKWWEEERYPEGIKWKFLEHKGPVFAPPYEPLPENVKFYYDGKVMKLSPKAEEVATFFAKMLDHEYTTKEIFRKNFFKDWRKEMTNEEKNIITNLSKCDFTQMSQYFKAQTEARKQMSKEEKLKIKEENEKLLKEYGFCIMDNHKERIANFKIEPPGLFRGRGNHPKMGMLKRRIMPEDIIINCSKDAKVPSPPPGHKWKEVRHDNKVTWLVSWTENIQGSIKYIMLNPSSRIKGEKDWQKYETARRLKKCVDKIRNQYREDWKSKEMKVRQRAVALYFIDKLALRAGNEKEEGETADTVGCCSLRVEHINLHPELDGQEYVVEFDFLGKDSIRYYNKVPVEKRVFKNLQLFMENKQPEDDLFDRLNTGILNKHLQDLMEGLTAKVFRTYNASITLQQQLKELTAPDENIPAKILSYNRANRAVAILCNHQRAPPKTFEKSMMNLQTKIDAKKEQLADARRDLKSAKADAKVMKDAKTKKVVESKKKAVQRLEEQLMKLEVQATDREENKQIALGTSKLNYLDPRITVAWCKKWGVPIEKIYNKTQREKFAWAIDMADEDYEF
Experiment: In vitro inhibition of Topoisomerase I-mediated DNA cleavage using supercoiled pBR322 plasmid DNA.
Numbers only, in nM.

Please give the measured EC50 for this compound: O=C1c2c(c3c4ccccc4n(C4OC(CO)C(O)C(O)C4O)c3c3[nH]c4cccc(O)c4c23)C(=O)N1NC(CO)CO (centres undefined)
570

Please give the measured EC50 for this compound: O=C1c2c(c3c4cccc(O)c4n(C4OC(CO)C(O)C(O)C4O)c3c3[nH]c4ccc(O)cc4c23)C(=O)N1NC(CO)CO (centres undefined)
510

Please give the measured EC50 for this compound: O=C1c2c(c3c4cccc(O)c4n(C4OC(CO)C(O)C(O)C4O)c3c3[nH]c4cc(O)ccc4c23)C(=O)N1NC(CO)CO (centres undefined)
160

Now consider the entry below.
Please give the measured EC50 for this compound: O=C1c2c(c3c4cc(O)ccc4n(C4OC(CO)C(O)C(O)C4O)c3c3[nH]c4ccc(O)cc4c23)C(=O)N1NC(CO)CO (centres undefined)
210

---

System: MKN-45
Test: In vitro cytotoxicity against MKN-45 (human stomach cancer) cells.
Format: functional, cell-based
pIC50: −log10 of the molar value.
Decide using pIC50: a value greater than or equal to 7 is MET, a smaller one is NOT MET.

Consider the worked cases shown below.
Assess whether reported pIC50 for O=C1c2c(c3c4ccc(O)cc4n(C4OC(CO)C(O)C(O)C4O)c3c3[nH]c4cc(O)ccc4c23)C(=O)N1NC(CO)CO (stereo not drawn) sits at 7 or higher.
MET

Assess whether reported pIC50 for O=C1c2c(c3c4cc(O)cc(O)c4n(C4OC(CO)C(O)C(O)C4O)c3c3[nH]c4c(O)cc(O)cc4c23)C(=O)N1NC(CO)CO (stereo not drawn) sits at 7 or higher.
NOT MET

Assess whether reported pIC50 for O=C1c2c(c3c4cc(O)ccc4n(C4OC(CO)C(O)C(O)C4O)c3c3[nH]c4ccc(O)cc4c23)C(=O)N1NC(CO)CO (stereo not drawn) sits at 7 or higher.
NOT MET

Assess whether reported pIC50 for O=C1c2c(c3c4ccccc4n(C4OC(CO)C(O)C(O)C4O)c3c3[nH]c4cccc(O)c4c23)C(=O)N1NC(CO)CO (stereo not drawn) sits at 7 or higher.
NOT MET

Assess whether reported pIC50 for O=C1c2c(c3c4ccccc4n(C4OC(CO)C(O)C(O)C4O)c3c3[nH]c4c(O)cccc4c23)C(=O)N1NC(CO)CO (stereo not drawn) sits at 7 or higher.
NOT MET

New cases:
Assess whether reported pIC50 for O=C1c2c(c3c4ccc(O)cc4n(C4OC(CO)C(O)C(O)C4O)c3c3[nH]c4ccc(O)cc4c23)C(=O)N1NC(CO)CO (stereo not drawn) sits at 7 or higher.
MET

Assess whether reported pIC50 for O=C1c2c(c3c4ccc(O)cc4n(C4OC(CO)C(O)C(O)C4O)c3c3[nH]c4c(O)cc(O)cc4c23)C(=O)N1NC(CO)CO (stereo not drawn) sits at 7 or higher.
NOT MET

Assess whether reported pIC50 for O=C1c2c(c3c4cccc(O)c4n(C4OC(CO)C(O)C(O)C4O)c3c3[nH]c4ccc(O)cc4c23)C(=O)N1NC(CO)CO (stereo not drawn) sits at 7 or higher.
NOT MET

Assess whether reported pIC50 for O=C1c2c(c3c4cccc(O)c4n(C4OC(CO)C(O)C(O)C4O)c3c3[nH]c4ccccc4c23)C(=O)N1NC(CO)CO (stereo not drawn) sits at 7 or higher.
NOT MET

Assess whether reported pIC50 for O=C1c2c(c3c4cc(O)ccc4n(C4OC(CO)C(O)C(O)C4O)c3c3[nH]c4ccccc4c23)C(=O)N1NC(CO)CO (stereo not drawn) sits at 7 or higher.
NOT MET

Assess whether reported pIC50 for O=C1c2c(c3c4cc(O)ccc4n(C4OC(CO)C(O)C(O)C4O)c3c3[nH]c4c(O)cccc4c23)C(=O)N1NC(CO)CO (stereo not drawn) sits at 7 or higher.
NOT MET

Assess whether reported pIC50 for O=C1c2c(c3c4c(O)cccc4n(C4OC(CO)C(O)C(O)C4O)c3c3[nH]c4ccccc4c23)C(=O)N1NC(CO)CO (stereo not drawn) sits at 7 or higher.
NOT MET

Assess whether reported pIC50 for O=C1c2c(c3c4ccc(O)cc4n(C4OC(CO)C(O)C(O)C4O)c3c3[nH]c4ccccc4c23)C(=O)N1NC(CO)CO (stereo not drawn) sits at 7 or higher.
MET

Assess whether reported pIC50 for O=C1c2c(c3c4ccccc4n(C4OC(CO)C(O)C(O)C4O)c3c3[nH]c4ccc(O)cc4c23)C(=O)N1NC(CO)CO (stereo not drawn) sits at 7 or higher.
NOT MET
